Overview of recorded inhibition for various compounds
Target: Homeodomain-interacting protein kinase 1 (Homo sapiens)
Conditions: at 1 µM
Provide only the numeric value, understood in %.

Cc1ccc(Nc2ccnc(Nc3cccc(C(N)=O)c3)n2)cc1O = 0.47
CN(c1ccc(NC(=O)Nc2ccc(OC(F)(F)F)cc2)cc1)c1ccnc(Nc2cccc(S(N)(=O)=O)c2)n1 = 34
Cc1cc(Cl)cc2c1NC(=O)C2=NNc1ccc(S(N)(=O)=O)cc1 = 1.67
CN(C)CCCn1c(-c2nonc2N)nc2cnccc21 = -0.49
CCS(=O)(=O)c1ccc(OC)c(Nc2ncc(-c3cccc(OC)c3)o2)c1 = 48.3
COc1cc(Nc2nccc(-c3cnn4ncccc34)n2)cc(OC)c1 = 93.7

Input: Request body: readout inhibition, system Homeodomain-interacting protein kinase 1 (Homo sapiens), query Oc1cccc(-c2nc(-c3ccccc3)[nH]c2-c2ccncc2)c1 . Return the value.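 Further: values are mean percent inhibition.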
Output: 4.29

###

Target: Ephrin type-A receptor 4 (Homo sapiens)
Conditions: at 1 µM
Description: GSK_PKIS: EPHA4 mean inhibition at 1 uM [Nanosyn]
READOUT_NAME: inhibition (%)
Numeric only. Scale: %

Sample records with inhibition:
CS(=O)(=O)Nc1cccc(-c2ccc3c(NC(=O)C4CC4)n[nH]c3c2)c1 = -7.46
COC(=O)c1ccc2c(c1)C(=Cc1cc(Br)c(O)c(Br)c1)C(=O)N2 = 12.2
COc1ccc(-c2nn3ncccc3c2-c2ccnc(Nc3cccc(C(F)(F)F)c3)n2)cc1 = 8.87
c1ccc(Cc2nc3ccc(Nc4ncnc5ccccc45)cc3[nH]2)cc1 = 11.7
N#Cc1cccc(Nc2nccc(-c3cnn4ncccc34)n2)c1 = 43.8

Input: Tell me the measured inhibition of NC(=O)c1sc(-n2cnc3ccccc32)cc1OCc1ccccc1Br , please.
Output: 9.89

Input: Moving on to CC(C)c1ccc(Nc2nccc(-c3cnn4ncccc34)n2)cc1
Output: 10.3

Input: One more molecule: CN(C)CCCn1c(-c2nonc2N)nc2cnccc21
Output: 3.54

Input: CS(=O)(=O)CCNCc1nc(-c2ccc3ncnc(Nc4ccc(OCc5cccc(C(F)(F)F)c5)cc4)c3c2)cs1 , same question.
Output: 7.07

Input: Next entry: CN(C)c1cc2c(Nc3ccc4c(cnn4Cc4ccccc4)c3)ncnc2cn1
Output: 2.96

Input: Quick one: NS(=O)(=O)c1ccc(N/N=C2\C(=O)Nc3ccc(Cl)cc32)cc1
Output: 12.2

Input: Similarly, COc1ccc2ncnc(Nc3ccc(OCc4ccccc4)cc3)c2c1 ?
Output: 5.92

Input: Now the same for Oc1cccc(-c2nc(-c3ccccc3)[nH]c2-c2ccncc2)c1
Output: 32.9

Input: Can you check c1ccc(Nc2ncc(-c3ccccc3)o2)cc1 next?
Output: 12.1

Input: What about NS(=O)(=O)c1cccc(Nc2cc(-c3ccc(F)cc3)n[nH]2)c1 ?
Output: 10

Input: // same read-out, input: Nc1nccc(-c2c(-c3ccc(F)cc3)nn3cc(C(F)(F)F)ccc23)n1
Output: 5.34

Input: Then this molecule: CCS(=O)(=O)c1ccc(OC)c(Nc2nccc(N(C)c3ccc4c(C)n[nH]c4c3)n2)c1
Output: 45.3

###

Target: Rhodopsin kinase GRK7 (Homo sapiens);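 further: reported figures are mean percent inhibition of GRK7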
Settings: at 0.1 µM
Known inhibition of a selection of compounds
Output spec: scalar in %, unitless text.

Example entries and their recorded answers appear below.
Cc1nc(-c2ccccc2)n2nc(NCCCN3CCOCC3)ncc12 = 5.84
[O-][S+]1CCN(Cc2ccc(-c3ccc4ncnc(Nc5ccc(OCc6ccccc6)c(Cl)c5)c4c3)o2)CC1 = 7.76

Input: GET /values?readout=inhibition&item= COC(=O)c1ccc2c(c1)C(=Cc1cc(Br)c(O)c(Br)c1)C(=O)N2
Output: 12.8

Input: Queued: NS(=O)(=O)c1ccc(Nc2cc(-c3cccc(O)c3)n[nH]2)cc1
Output: 3.02

Input: Also check Cc1ccc2c(-c3ccnc(Nc4ccc5c(c4)OCCO5)n3)c(-c3ccc(C(F)(F)F)cc3)nn2n1
Output: 5.75

Input: Also need Cc1ccc(C(=O)NC2CC2)cc1-c1ccc2[nH]ncc2c1 , thanks.
Output: -1.33

Input: Repeat for the following compound: N#Cc1c(NC(=O)c2ccccc2F)sc2c1CCCC2
Output: 2.28

Input: Same question, Nc1ccc(C#Cc2cncnc2Nc2ccc(OCc3cccc(F)c3)c(Cl)c2)cc1 this time
Output: 5.58

###

Target: Serine/threonine-protein kinase SIK1 (Homo sapiens) (UniProt P57059);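 further: reported as mean inhibition, part of the GSK PKIS screen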
Sequence (P57059 whole entry): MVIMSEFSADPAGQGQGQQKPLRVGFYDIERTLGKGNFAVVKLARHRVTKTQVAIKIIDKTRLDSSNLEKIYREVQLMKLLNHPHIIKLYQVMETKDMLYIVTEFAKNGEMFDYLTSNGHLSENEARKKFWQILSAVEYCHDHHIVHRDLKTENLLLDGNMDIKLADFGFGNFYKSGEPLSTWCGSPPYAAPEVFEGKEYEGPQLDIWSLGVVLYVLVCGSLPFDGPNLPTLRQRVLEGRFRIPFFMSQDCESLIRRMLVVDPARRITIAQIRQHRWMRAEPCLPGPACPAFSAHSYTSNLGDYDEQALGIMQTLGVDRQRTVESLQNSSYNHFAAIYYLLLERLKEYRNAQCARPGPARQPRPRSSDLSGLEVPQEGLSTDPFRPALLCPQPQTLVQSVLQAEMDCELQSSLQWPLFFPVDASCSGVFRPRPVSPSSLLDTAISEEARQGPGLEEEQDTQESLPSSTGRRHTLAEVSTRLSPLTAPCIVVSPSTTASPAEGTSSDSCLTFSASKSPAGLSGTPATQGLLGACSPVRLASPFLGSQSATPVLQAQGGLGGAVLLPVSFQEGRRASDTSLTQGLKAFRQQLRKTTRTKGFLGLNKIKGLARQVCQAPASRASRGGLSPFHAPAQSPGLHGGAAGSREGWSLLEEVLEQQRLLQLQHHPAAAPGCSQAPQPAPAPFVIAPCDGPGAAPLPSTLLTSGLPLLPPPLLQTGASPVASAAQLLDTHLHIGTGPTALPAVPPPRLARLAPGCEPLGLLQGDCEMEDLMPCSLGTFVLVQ
Details: at 0.1 µM
Please use the following inhibition ranges when assigning a class: L (below 5%), M (5% to below 9%), H (9% or more)

Input: For the record NC(=O)c1sc(-n2cnc3ccccc32)cc1OCc1ccccc1Br , report the class its inhibition corresponds to.
Output: L

Input: Follow-up entry: CCn1c(-c2nonc2N)nc2c(C#CC(C)(C)O)nc(OCCNC)cc21
Output: M

Input: Can you check COc1ccc2ncnc(Nc3ccc(OCc4ccccc4)cc3)c2c1 next?
Output: L

Input: // query: C[C@@H](Oc1cc(-n2cnc3ccc(OCC4CCN(C)CC4)cc32)sc1C(N)=O)c1ccccc1C(F)(F)F
Output: H

Input: One more molecule: Cc1ccc(Nc2ccnc(Nc3cccc(C(N)=O)c3)n2)cc1O
Output: H

Input: One more molecule: CCCN1CCCC(c2ccc(Nc3nc(Nc4cc(F)ccc4C(N)=O)c4cc[nH]c4n3)c(OC)c2)C1 (stereo not given)
Output: M

Input: Next up: COc1cccc(-n2nc(C)c3c(N/N=C(\C)c4ccncc4)ncnc32)c1
Output: L

Input: Follow-up item: Cc1cc(O)cc(C)c1/C=C/c1cncc(C(=O)N(C)C)c1
Output: H

###

Molecular target: Activated CDC42 kinase 1 (Homo sapiens);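 further: values are mean inhibition of TNK2, from the GSK PKIS screening dataset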
Details: at 0.1 µM
READOUT_NAME: inhibition (%)
Just the number in %, nothing appended.

NC(=O)c1cccc(Nc2nccc(Nc3cccc(F)c3)n2)c1 = 2.29
O=C(Nc1ccc(Oc2ccc3[nH]c(NC(=O)c4ccco4)nc3c2)cc1)Nc1cc(C(F)(F)F)ccc1F = 0.17
CCS(=O)(=O)c1ccc(OC)c(Nc2ncc(-c3cccc(OC)c3)o2)c1 = 2.52
NS(=O)(=O)c1ccc(-c2cc3ccncc3cc2OCc2ccccc2)cc1 = 0.6
N#Cc1cccc(Nc2nccc(-c3cnn4ncccc34)n2)c1 = 2.35

Input: # lookup: inhibition of ON=C1CCc2cc(-c3nc(C4CCNCC4)[nH]c3-c3ccncc3)ccc21
Output: -0.93

Input: Now give it for Cc1cc(Cl)cc2c1NC(=O)C2=NNc1ccc(S(N)(=O)=O)cc1 too.
Output: 0.54

Input: Please answer likewise for O=C1Nc2ccc(-c3cccnc3)cc2C1=Cc1cc(Br)c(O)c(Br)c1
Output: 1.09

Input: How about CC(C)c1ccc(Nc2nccc(-c3cnn4ncccc34)n2)cc1 ?
Output: 0.39

Input: Record: COc1cc2ncn(-c3cc(OCc4ccccc4S(C)(=O)=O)c(C#N)s3)c2cc1OC
Output: 6.02

###

Target: Misshapen-like kinase 1 (Homo sapiens) (UniProt Q8N4C8)
Sequence (Q8N4C8 whole entry, looked up): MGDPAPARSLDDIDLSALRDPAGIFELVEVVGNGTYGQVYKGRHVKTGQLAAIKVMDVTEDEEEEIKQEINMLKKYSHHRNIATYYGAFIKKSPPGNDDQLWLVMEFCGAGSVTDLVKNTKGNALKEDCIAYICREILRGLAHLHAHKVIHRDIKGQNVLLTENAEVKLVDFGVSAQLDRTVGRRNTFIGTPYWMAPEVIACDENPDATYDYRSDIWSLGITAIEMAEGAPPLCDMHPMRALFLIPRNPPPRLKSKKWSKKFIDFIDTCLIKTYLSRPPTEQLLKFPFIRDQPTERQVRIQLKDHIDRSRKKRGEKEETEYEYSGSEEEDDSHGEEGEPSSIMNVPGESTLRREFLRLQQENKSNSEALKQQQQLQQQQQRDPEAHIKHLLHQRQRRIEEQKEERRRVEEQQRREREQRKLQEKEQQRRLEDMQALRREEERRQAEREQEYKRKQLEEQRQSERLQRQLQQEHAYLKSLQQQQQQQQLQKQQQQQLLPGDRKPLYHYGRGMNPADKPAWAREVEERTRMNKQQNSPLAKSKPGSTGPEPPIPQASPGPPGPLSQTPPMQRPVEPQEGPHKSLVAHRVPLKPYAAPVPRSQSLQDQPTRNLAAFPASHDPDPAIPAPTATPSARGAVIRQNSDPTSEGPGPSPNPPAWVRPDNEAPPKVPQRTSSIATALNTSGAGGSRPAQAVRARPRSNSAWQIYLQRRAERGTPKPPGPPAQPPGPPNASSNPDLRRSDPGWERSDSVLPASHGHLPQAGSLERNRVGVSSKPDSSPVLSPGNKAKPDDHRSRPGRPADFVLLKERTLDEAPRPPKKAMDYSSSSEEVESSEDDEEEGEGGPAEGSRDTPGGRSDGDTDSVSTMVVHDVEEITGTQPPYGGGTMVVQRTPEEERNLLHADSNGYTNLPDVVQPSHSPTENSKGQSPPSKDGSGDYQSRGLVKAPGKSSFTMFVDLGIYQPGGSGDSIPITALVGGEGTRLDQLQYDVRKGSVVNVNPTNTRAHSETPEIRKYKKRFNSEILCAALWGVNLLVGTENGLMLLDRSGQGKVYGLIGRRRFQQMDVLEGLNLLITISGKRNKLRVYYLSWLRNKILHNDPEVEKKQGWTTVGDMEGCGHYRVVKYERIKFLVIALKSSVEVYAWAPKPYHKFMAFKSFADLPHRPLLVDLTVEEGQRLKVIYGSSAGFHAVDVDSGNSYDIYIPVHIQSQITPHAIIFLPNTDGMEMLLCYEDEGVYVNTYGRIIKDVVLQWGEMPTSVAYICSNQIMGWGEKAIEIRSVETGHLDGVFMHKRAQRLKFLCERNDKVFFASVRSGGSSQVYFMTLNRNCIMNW
Details: at 1 µM
Description: GSK_PKIS: MINK mean inhibition at 1 uM [Nanosyn]
Is inhibition at least 20%? Then t. If not, f.

Solved entries:
CS(=O)(=O)CCNCc1nc(-c2ccc3ncnc(Nc4ccc(OCc5cccc(C(F)(F)F)c5)cc4)c3c2)cs1 = f
[O-][S+]1CCN(Cc2ccc(-c3ccc4ncnc(Nc5ccc(OCc6ccccc6)c(Cl)c5)c4c3)o2)CC1 = f
COC(=O)Nc1nc2cc(Oc3ccc(NC(=O)Nc4cccc(Br)c4)cc3)ccc2[nH]1 = f
COc1cccc(-n2ncc3c(N/N=C/c4ccc(C)cc4)ncnc32)c1 = f

Input: inhibition >= 20% for CN(C)C(=O)O[C@H]1CN[C@H](C#Cc2cc3ncnc(Nc4ccc(OCc5cccc(F)c5)c(Cl)c4)c3s2)C1 ?
Output: f

Input: Cool, now CS(=O)(=O)Nc1cccc(-c2ccc3c(NC(=O)C4CC4)n[nH]c3c2)c1
Output: f

Input: Then what about the compound COc1cc2ncn(-c3cc(OCc4ccccc4S(C)(=O)=O)c(C#N)s3)c2cc1OC ?
Output: t

Input: // next record FC(F)(F)c1ccc(-c2nn3ncccc3c2-c2ccnc(Nc3ccc4c(c3)OCCO4)n2)cc1
Output: f

Input: Please do the same for Cc1ccc2c(c1)/C(=N/Nc1ccc(S(N)(=O)=O)cc1)C(=O)N2 as well.
Output: t

Input: Same question, ON=C1CCc2cc(-c3nc(C4CCNCC4)[nH]c3-c3ccncc3)ccc21 this time
Output: f

Input: Same lookup for O=C(Nc1ccc(Oc2ccc3[nH]c(NC(=O)c4ccco4)nc3c2)cc1)Nc1cc(C(F)(F)F)ccc1F , please.
Output: f

###

Molecular target: Protein-tyrosine kinase 6 (Homo sapiens)
Conditions: at 1 µM
Description: GSK_PKIS: BRK mean inhibition at 1 uM [Nanosyn]
Reported inhibition by item:
The reply should read as a number followed by its unit.

Field: example entries. Status: answers known.
C[C@@H](Oc1cc(-n2cnc3ccc(OCC4CCN(C)CC4)cc32)sc1C(N)=O)c1ccccc1C(F)(F)F = -4.24%
Cc1ccc(Nc2ccnc(Nc3cccc(C(N)=O)c3)n2)cc1O = 91.5%

Here is the next item to consider.
Input: Recorded inhibition of Cc1cc(Cl)cc2c1NC(=O)C2=NNc1ccc(S(N)(=O)=O)cc1 , please.
Output: 1.77%
